test: Plasma pharmacokinetics in patients (LC-MS/MS, noncompartmental analysis); assay type: in vivo, human; details: human, plasma, po, 6 mg, 6 mg oral, day 21; read-out: AUC(0-τ) Geometric mean (%CV)
READOUT: AUC

Task item: Quick check: AUC of Cn1c(=O)c(F)c(Nc2ccc(I)cc2F)c2c(=O)n(C[C@@H](O)CO)cnc21 ?
Reply: 925 ng·h/mL

====

experiment: Plasma pharmacokinetics in patients (LC-MS/MS, noncompartmental analysis); format: in vivo, human; conditions: human, plasma, po, 11.8 mg, 11.8 mg oral, day 1; read-out: Cmax Geometric mean (%CV)
READOUT: Cmax
State the result as a value with its unit after it.

Task item: So what does the record say about Cmax for Cn1c(=O)c(F)c(Nc2ccc(I)cc2F)c2c(=O)n(C[C@@H](O)CO)cnc21 ?
Reply: 23 ng/mL

====

experiment: Plasma pharmacokinetics in patients (LC-MS/MS, noncompartmental analysis); assay type: in vivo, human; conditions: human, plasma, po, 8.4 mg, 8.4 mg oral, day 1; read-out: Tmax Median (range)
READOUT: Tmax (h)
State the answer as a number, implicitly in h.

Task item: Value lookup for Tmax; key = Cn1c(=O)c(F)c(Nc2ccc(I)cc2F)c2c(=O)n(C[C@@H](O)CO)cnc21
Reply: 3

====

experiment: Plasma pharmacokinetics in patients (LC-MS/MS, noncompartmental analysis); format: in vivo, human; conditions: human, plasma, po, 11.8 mg, 11.8 mg oral, day 21; read-out: Cmax Geometric mean (%CV)
READOUT: Cmax (ng/mL)
Please reply with the bare figure in ng/mL and do not write the unit itself.

Task item: // returns reported Cmax for input Cn1c(=O)c(F)c(Nc2ccc(I)cc2F)c2c(=O)n(C[C@@H](O)CO)cnc21
Reply: 53.2

====

test: Plasma pharmacokinetics in patients (LC-MS/MS, noncompartmental analysis); assay type: in vivo, human; settings: human, plasma, po, 4.4 mg, 4.4 mg oral, day 21; read-out: AUC(0-τ) Geometric mean (%CV)
READOUT: AUC (ng·h/mL)
Note: unit ng·h/mL is implicit; provide only the numeric part.

Task item: Query: AUC; subject: Cn1c(=O)c(F)c(Nc2ccc(I)cc2F)c2c(=O)n(C[C@@H](O)CO)cnc21
Reply: 318

====

assay: Plasma pharmacokinetics in patients (LC-MS/MS, noncompartmental analysis); assay type: in vivo, human; conditions: human, plasma, po, 11.8 mg, 11.8 mg oral, day 1; read-out: AUC(0-τ) Geometric mean (%CV)
READOUT: AUC (ng·h/mL)
# value in ng·h/mL; strip the unit string

Task item: I would be grateful if you could share the reported AUC for Cn1c(=O)c(F)c(Nc2ccc(I)cc2F)c2c(=O)n(C[C@@H](O)CO)cnc21 [TAK-733] .
Reply: 299

====

assay: Plasma pharmacokinetics in patients (LC-MS/MS, noncompartmental analysis); format: in vivo, human; details: human, plasma; 11.8 mg oral, day 21; read-out: Terminal t½ Mean (SD) (converted)
READOUT: half-life (h)
Write the value in h as a bare number.

Task item: What value of half-life has been reported for the following compound? Cn1c(=O)c(F)c(Nc2ccc(I)cc2F)c2c(=O)n(C[C@@H](O)CO)cnc21
Reply: 43

====

assay: Plasma pharmacokinetics in patients (LC-MS/MS, noncompartmental analysis); type: in vivo, human; settings: human, plasma, po, 3.2 mg, 3.2 mg oral, day 1; read-out: Cmax Geometric mean (%CV)
READOUT: Cmax (ng/mL)
Expressed in ng/mL, but write only the number.

Task item: Recorded Cmax for Cn1c(=O)c(F)c(Nc2ccc(I)cc2F)c2c(=O)n(C[C@@H](O)CO)cnc21 , please?
Reply: 14.8

====

test: Plasma pharmacokinetics in patients (LC-MS/MS, noncompartmental analysis); format: in vivo, human; conditions: human, plasma, po, 8.4 mg, 8.4 mg oral, day 21; read-out: AUC(0-τ) Geometric mean (%CV)
READOUT: AUC (µg·h/mL)
// return numeric value only (unit: µg·h/mL, not printed)

Task item: Quick one: AUC of Cn1c(=O)c(F)c(Nc2ccc(I)cc2F)c2c(=O)n(C[C@@H](O)CO)cnc21 ?
Reply: 0.786

Taken from paper PMC5306265.
